Test: Quantitative High-Throughput drug screen in 47 multiple myeloma cell lines against the NCATS MIPE library collection: PE2_PLB cell viability assay (AID 1919869); further: nearly all actives have a fitted effect of over 35% in size; further: potency means the concentration at half of the fitted maximal effect
Conditions: PE2_PLB myeloma cells viability, ATP luminescence, 48 h; series mostly up to 45.8 µM
Inconclusive results are not listed. Activity calls are given as the source filed them. The call rests on the fitted dose curve; in most records, active means well fitted cell-killing curve with a large enough effect; inconclusive means small, poorly fitted or top-dose-only effect, or effect the other way; inactive means no such curve, though single readings can be large or run the other way.
Result type: Potency

Known results for compounds:
>>> print(df.to_string())
                                   compound  result_type   observed_result
0  CCOC(=O)[C@H](CCc1ccccc1)N[C@@H](C)C(=O)N1[C@@H](C(=O)O)C[C@H]2CCC[C@@H]21      Potency  8330 nM (active)
1    N#Cc1c(NC(=O)c2cccc3ccccc23)sc2c1CCCC2      Potency   526 nM (active)
2  Nc1nc2c(c(=O)[nH]1)N(C=O)[C@H](CNc1ccc(C(=O)N[C@@H](CCC(=O)O)C(=O)O)cc1)CN2      Potency          inactive
3  CCN(C(=O)c1c(O)c2c(Cl)cccc2n(C)c1=O)c1ccccc1      Potency          inactive
4       OCC(O)C(O)C(O)CO (stereo not drawn)      Potency          inactive

Quick batch: Potency for everything below.
1. O=C1NC(=O)[C@@H](c2cn3c4c(cccc24)CCC3)[C@H]1c1c[nH]c2ccccc12
2. Cn1cc(-c2cnn3c(N)c(Br)c([C@H]4CCCNC4)nc23)cn1
3. NC(=O)c1ncn([C@@H]2O[C@H](CO)[C@@H](O)[C@@H]2O)c1O

Output:
1: 1870 nM (active); 2: 1050 nM (active); 3: inactive

Below are 3 compounds. Give each one its Potency.
1. CCNC(=O)Nc1ccc(-c2nc3c(c(N4CCOC[C@H]4C)n2)CCN(C2COC2)C3)cc1
2. C[C@]12CCC(=O)C=C1[C@@H]1CC1[C@H]1[C@H]3[C@@H]4C[C@H]4[C@@]4(CCC(=O)O4)[C@@]3(C)CC[C@H]12 (stereo partly drawn)
3. C=C1C(=O)O[C@H]2[C@@H]1CCC(C)=CCC[C@@]1(C)O[C@@H]21

Output:
1180 nM (active)
inactive
3320 nM (active)

I would be grateful if you could provide Potency for each of the following entries.
1. COC(=O)[C@H](CCCN=C(N)N)NS(=O)(=O)c1ccc(C)cc1
2. COc1cc(C(C)C)c(Oc2cnc(NC(CO)CO)nc2N)cc1I
3. CN(C)c1ccc2cc(C(=O)N[C@@H](CCCN=C(N)CCl)C(=O)NCc3ccccc3)ccc2c1
4. CN(CC(=O)N(Cc1ccc(C2CCCCC2)cc1)c1ccc(C(=O)O)c(O)c1)S(=O)(=O)c1c(F)c(F)c(F)c(F)c1F
5. C[C@@]12C[C@@]3(O)O[C@@H](O1)[C@]1(COC(=O)c4ccccc4)[C@@H]3C[C@@]12O[C@@H]1O[C@H](CO)[C@@H](O)[C@H](O)[C@@H]1O
6. COc1cc(C[C@@H](CO)[C@H](CO)Cc2ccc(O)c(OC)c2)ccc1O
7. CC(=O)N[C@H]1[C@@H]([C@H](O)[C@H](O)CO)OC(C(=O)O)=C[C@@H]1N=C(N)N

Output:
["inactive", "7430 nM (active)", "8330 nM (active)", "3320 nM (active)", "inactive", "2350 nM (active)", "inactive"]
